Data origin, for the record: the EternaBench riboswitch data

Test system: MS2 coat protein
Assay: apparent Kd, MS2 coat protein; higher = weaker binding; RNA-MaP array; FMN 200 µM where present
Conditions: designed as: OFF switch for flavin mononucleotide; no ligand
measured.parameter: apparent Kd (µM)

> print(dat)
                              chain.sequence  measurement
 1  UAGGUACAUGAGGAUCACCCAUGUGAGGAUAUAGAUGAAGAUUGCGAGAGGGAGAGGACUAGAAGGCACAGUGG       0.0333
 2  GGAUAGGACAGAGGAUAUACGUGCUAGAGAUACUAGCAAAAUUUCCUCACAUGAGGAUCACCCAUGUAGAAGGCUGUCCUAGCG       0.0157
 3  CUUUUGUGAGGAUAUUCGUAGUAAAUAAAUAAAAUUAUUACGGAGAAGGCACAUGAGGAUCACCCAUGUUCCUU       0.0171
 4  CAUUGGUAAGGAUAUGCACCGAUCUCCGAAAGGAGAUCGGUGCAGAAGGUACAUGAGGAUCACCCAUGUUGAUG       0.0271
 5  GCACUGGAUGUAGGAUAUCAGGACGAUAAGUCCUGAGAAGGACAUGAGGAUCACCCAUGUGAUUACACCAGUGCAAAUAAUAUA      0.00578
 6  GCACUGGAUGUAGGAUAUCAGGACGAUAAGUCCUGAGAAGGACAUGAGGAUCACCCAUGUACUCAAAACCAGUGCUAUAAUAUA       0.0156
 7  GUCGUGUGAGGAUAUGAUUGUACGGCAGACUAGCGUCUGCUUCAGAAGGCACAUGAGGAUCACCCAUGUUUGUC       0.0186
 8  ACAGCACGAGGAUAUACAUGAGGAUCACCCAUGUCUGAGGGAAGGCGAACGCCCUUGUGUAGAAGGCGUUGAUC       0.0914
 9  AAGACACAUGAGGAUCACCCAUGUUAGGAUAUACGCAUGCAUGCAUGCAUGCAUGCAAGUAGAAGGAACCAUGC       0.0305
10  AAGAAGGACGCAGGAUAUCCAGGACCUCCCGCAGGAGAAGGGCGAGACAUGUGGAUCACCCAGACAUGAGGAUCACCCAUGUAG       0.0225
11  CAUUGCGGAGGAUAUAGGCCGUAAUACAUGAGGAUCACCCAUGUGCCGCUGUAUAAUUCCCUAGAAGGUUGCCAUC       0.0154
12  CCGACGAAAGUCGAACGAUGUAGCAGAAGGACAUGAGGAUCACCCAUGUCAGCUGUAACAGCCAUGUAGGAUAUGCUACAUCGU      0.00428
13  UUGAUGUCAUCAGGAUAUAGUAUUUAAGACAUAUCUUCUUUCUUACAUGAGGAUCACCCAUGUCGCUAGAAGGGAUGAAUGAUU       0.0187
14  CUUAAACAUGAGGAUCACCCAUGUCAGGAUAUGAUACUAUGUACUUCGGUACAUAGUAUCAGAAGGGAUAUAAA       0.0342
15  UAUAUAUAGUAAGGAUAUGUAACUAUUUUAUAAACAGAAGGUACUGACAUGAGGAUCACCCAUGUUUUAGUGUGGGCAUGUAGA       0.0867
16  GGUCGUCAAGUCAGGAUAUCGUUUAGUCGGUGUAACGAGAAGGGACAUGAGGAUCACCCAUGUCGUCUCAUCAG       0.0188
17  GGGCCAUAGUAGAAGGGAUAUACGAAAGGUAUAUCAGGAUAUACAUGAGGAUCACCCAUGUUCUAACAGUGAUAGUCCUCCCUA       0.0224
18  GCAGAUCAAGUGAGGAUAUCGUCUACCUCGGUAGACGAGAAGGCACAUGAGGAUCACCCAUGUGAUUGAUCUGC       0.0175
19  CUGAGUAGUCAGGAUAUGUGGUACAAAAGUACUGCAGAAGGGAUUACAUGAGGAUCACCCAUGUUUACUUCAUG       0.0474
20  UAAAUACAUGAGGAUCACCCAUGUCAGGAUAUAUUACGCCCGCCAAGCGAGCGCGUCUAUAGAAGGGACGGUGA       0.0333
21  CUAGCAACAUGAGGAUCACCCAUGUAGGAUAUCGCUAUUGUAAUCAUGAAACAUGAUUACAAUAGCGAGAAGGACAUAUGCUAA      0.00796
22  ACAUGAGGAUCACCCAUGUUAUCCGGGACUUCAAUUGUUUCUAGAAGGCUGUCUGCUUGUUAGUCAGAGGAUAUAGAAUCAAAU       0.0114
23  GUACUGUAGUGAGGAUAUACGAGAUCGAUAGAUCGGCGAUCCAUUUAUACAUGAGGAUCACCCAUGUAGAAGGCACUUCAGUAC      0.00562
24  UAUAUAAUUAAGAGCUGGAACUCAACAUGAGGAUCACCCAUGUAGGAUAUCAGCACGAUAAGUGCUGAGAAGGACAUCCAGCUC       0.0166
25  AAAAGCUCAGGAUAUACGGUCUGUUGUUGAGAAAUAUCGAAACAUGAGGAUCACCCAUGUAGAAGGGAGCGAAA        0.223
26  UAUGUAUUCGUAGGAUAUCCGUUGAGACCGUGUGGAGAAGGACGAACAUGAGGAUCACCCAUGUGUCAUGGUGUAGACAAUUUU       0.0655
27  UAAUUUAACAAGAAGGCUAACAUGAGGAUCACCCAUGUUGUACAUGGAUAUAGAGGAUAUUGCUAAUAAUUAUUUAUCAUAAUU       0.0242
28  GGUACUCAAAGAGUACCAAUACGAACAUGAGGAUCACCCAUGUAGGAUAUGCAAAAGCCGGAGUAGCAGAAGGACAUGUGCCUA       0.0126
29  GUAUCGUAUGUGAGGAUAUAUUUGUCCUUGGAUUUGUAGAAGGCACAUGAGGAUCACCCAUGUCCUAGUGGUCC       0.0351
